Recorded values, source PubChem BioAssay.

# protocol: HepG2 liver cancer cell viability effects, profiling panel, resazurin fluorescence, 24 h, PK04 Diversity Set (AID 1172); also: test concentration not given here
# cond: higher = more signal
measure: z-score
One number for each entry.

State, in one line, measured z-score of C[C@]12C(=O)N(CCO)[C@@H]3C(=O)N(c4ccc(Cl)cc4)CC=CC31O[C@@H]1/C=C\CCCOC(=O)C12 (some centres undefined)
-0.561

Supply measured z-score of [N-]=[N+]=Nc1ccccc1C[C@]1(C(N)=O)COC(c2ccc(OCCCO)cc2)=N1 in your reply.
0.978

Please look at this molecule and report its z-score: CCCCC(=C=CC[C@@H](O)c1ccc(OCCO)cc1)CCO
1.02

Input CCCCCCc1nc(-c2ccc(OC)nc2)c(C)c2c1[Si](C(C)C)(C(C)C)OC2 , output reported z-score.
0.167

Working through the 5 molecules below one at a time, give z-score for each.
1. COc1ccc(CCNC(=O)[C@@]2(C)c3ccccc3C(=O)N(Cc3ccc(OC(F)(F)F)cc3)[C@H]2c2ccc(CO)cc2)cc1
2. C=CC[C@]12N=C(c3ccc(OCCCO)cc3)O[C@H]1c1ccccc1N(CCC)C2=O
3. O=C1NC(=O)C2C1C=CC(C(O)C1CCCCC1)N2Nc1ccccn1 (centres undefined)
4. COC(=O)[C@@]1(Cc2ccccc2)[C@H]2c3cc(C(=O)N(C)C)n(Cc4ccc(Cl)c(C(F)(F)F)c4)c3C[C@H]2CN1C(=O)c1ccccc1
5. O=C1OC[C@@H](c2ccccc2)n2cc(/C=C/c3ccccc3)cc21

[1.4, -0.151, -0.864, -1.83, -0.295]

----------
# protocol: small-molecule microarray binders of probe aCHRDL2, primary screen, biochemical, biotinylated probe, 635/667 nm fluorescence (AID 1100)
# cond: higher = more signal
For each of the compounds below, state its composite z-score.
Numbers only.

For the compound C=C(C(=O)CC[C@@H](OC(=O)c1ccccc1-c1ccccc1C(=O)O)c1ccc(OCCO)cc1)C(C)C , report composite z-score.
-0.375

Consider the compound C=C(C(=O)CC[C@@H](OC(=O)c1ccccc1-c1ccccc1C(=O)O)c1ccc(CO)o1)C(C)C and give its recorded composite z-score.
-0.532

Name the recorded composite z-score of the compound listed here: C=CC[C@H](O)c1ccc(O)c2ccccc12
-0.0155

Specify reported composite z-score for the compound shown: O=C1O[C@@H](c2ccccc2)[C@@H](c2ccccc2)N2[C@@H](c3ccccc3OCCO)[C@]3(C(=O)Nc4ccc(C#CC5(O)CCCCCC5)cc43)[C@@H](C(=O)N3CCCCCCC3)[C@H]12
1.84

Report composite z-score, nothing else, for this compound: C=CCNC(=O)[C@@H]1[C@H]2C(=O)O[C@H](c3ccccc3)[C@H](c3ccccc3)N2[C@H](c2ccc(OCCO)cc2)[C@@]12C(=O)N(C(=O)OCCOC)c1ccccc12
0.496

// batch mode: one composite z-score value per listed entry
1. CCCCCCCCCCC(O)C1C=CC2C(=O)N(C)C(=O)C2N1Nc1ccccc1 (configuration not stated)
2. COc1cc(CO)cc(I)c1O[C@H]1C=C(C(=O)NCCO)C[C@@H](N(CCN2CCOCC2)C(=O)C2CCCO2)[C@@H]1O (some centres not stated)
3. CC(=O)NCCCC[C@@H]1NC(=O)[C@H]2C[C@@H](C(=O)NCCCCCN)[C@@H](c3ccc(O)cc3)N2C1=O
4. C=C(C(=O)CC[C@@H](OC(=O)c1cccnc1)c1cccc(OCCO)c1)C(C)C
5. CCCNC(=O)[C@@]1(Sc2ccc(C)cc2)CC(=O)N(Cc2cc(C(F)(F)F)cc(C(F)(F)F)c2)[C@@H]1c1ccc(CO)cc1
6. COC(=O)C(CC#Cc1ccc2c(c1)[C@]1(C(=O)N2)[C@H](C(=O)N2CCCCCCC2)[C@H]2C(=O)O[C@H](c3ccccc3)[C@H](c3ccccc3)N2[C@@H]1c1ccc(OCCO)cc1)C(=O)OC
7. COC(=O)[C@@]1(Cc2ccc(F)cc2)[C@H]2c3cc(C(=O)N(C)C)n(Cc4ccsc4Br)c3C[C@H]2CN1C(=O)c1ccccc1

0.937
-0.521
0.17
0.0064
0.738
1.58
1.36

# return composite z-score for each item in the list
1. COc1ccc(C(=O)Nc2ccc(CN3C(=O)[C@]4(O[C@H](CC(=O)N(CCO)Cc5ccccc5)[C@@H]([Si](C)(C)c5ccc(OC)cc5)[C@@H]4C)c4ccccc43)cc2)cc1
2. O=C(N1CCOCC1)[C@]1(CCS(=O)(=O)c2ccccc2)N=C(c2ccc(OCCCO)cc2)O[C@@H]1c1ccccc1
3. C=CCOC(=O)[C@H]1[C@@H]2C(=O)O[C@@H](c3ccccc3)[C@@H](c3ccccc3)N2[C@@H](c2ccc(OCCOC(=O)[C@H]3C[C@H]4C(=O)NCC(=O)N4[C@H]3c3ccc(O)cc3)cc2)[C@]12C(=O)Nc1ccccc12
4. CN1C(=O)C2C=CC(C(O)COCc3ccccc3)N(Nc3ccc([N+](=O)[O-])cc3[N+](=O)[O-])C2C1=O (configuration not stated)
5. CC(C)N1C(=O)[C@@]2(Cc3ccccc31)c1ccccc1C(=O)N(Cc1ccccc1)[C@H]2c1ccc(CO)cc1

-0.338
1.37
0.116
0.888
-1.01

Below are some compounds; for each one, tell me its composite z-score.
1. O=C1OCC=C[C@H]2OC34C=CCN(Cn5nnc6ccccc65)C(=O)[C@H]3N(CCO)C(=O)[C@@H]4[C@@H]12 (some centres not stated)
2. Cc1ccc(S[C@]2(C(=O)NCCN3CCOCC3)CC(=O)N(C(C)C)[C@@H]2c2ccc(CO)cc2I)cc1
3. CC[C@@H](O[Si](C#C[Si](C(C)C)(C(C)C)C(C)C)(C(C)C)C(C)C)c1cn(Cc2cccc(Cl)c2)nn1
4. COCCOC(=O)N1C(=O)[C@@]2(c3cc(C#CCNC(N)=O)ccc31)[C@H](c1ccccc1OCCO)N1[C@H](c3ccccc3)[C@H](c3ccccc3)OC(=O)[C@H]1[C@@H]2C(=O)N1CCCCCCC1

1. 0.329
2. 1.24
3. -0.3
4. 0.735

Record composite z-score for all entries; do not skip any.
1. C=CCNC(=O)[C@@H]1[C@H]2C(=O)O[C@H](c3ccccc3)[C@H](c3ccccc3)N2[C@H](c2ccc(OCCO)cc2)[C@@]12C(=O)Nc1ccc(C#CCNC(N)=O)cc12
2. COc1cccc(C)c1NC(=O)O[C@H]1[C@H](OC(=O)Nc2ccc3c(c2)OCO3)[C@H](OC(=O)Nc2ccc3c(c2)OCO3)[C@@H](OC)O[C@@H]1CO
3. C=C(CC1([C@@H](NP(=O)(c2ccccc2)c2ccccc2)[C@H]2C[C@@H]2CCCC)CC1)c1cccc(OC)c1
4. CO[C@H]1O[C@H](CO)[C@@H](OC(=O)CCc2ccccc2)[C@@H]2OC(=O)[C@@H](Cc3ccc4ccccc4c3)C/C=C/C[C@H](Cc3ccc4ccccc4c3)C(=O)O[C@@H]12
5. COc1ccc([Si](C)(C)[C@H]2[C@H](CC(=O)N(CCO)Cc3ccccc3)O[C@@]3(C(=O)N(Cc4ccc(N5C(=O)c6cccc7cccc5c67)cc4)c4ccccc43)[C@@H]2C)cc1
6. CCOC(=O)C[C@H]1[C@H](OC(=O)c2ccc(-c3ccccc3)cc2)[C@@H](NC(=O)C2CCCCC2)c2cc(OCCCO)ccc2N1C(=O)Cc1ccc(OC)cc1

0.584
0.306
1.15
0.46
0.0598
0.0338
